- System: SK-OV-3
- Protocol notes: Cell inhibitory activity experiment (CellTiter-Glo, 72 hours)
- Assay type: cell-based
- Condition summary: Homo sapiens; SK-OV-3, 72 hours
- Procedure: • a) All cell lines were cultured in complete medium at 37 °C under 5% CO2. • b) Cells in logarithmic growth phase were collected and counted by a […]. The cell viability was detected by trypan blue exclusion method, and guaranteed to be over 90%. • c) The cell density was adjusted with a complete medium. […]
The following compounds are shown together with reported IC50 values.
Supply the numeric figure in nM, leaving out any unit text.

Take a look at these entries with their results.
CC[C@@]1(O)C(=O)OCc2c1cc1n(c2=O)Cc2c-1nc1cc(F)c(F)cc1c2CO [C1-5] :: 79.5
CC[C@@]1(O)C(=O)OCc2c1cc1n(c2=O)Cc2c-1nc1cc(F)c(C)c3c1c2[C@@H](NC(=O)CO)CC3 [DXd] :: 288

Note: attention shifts to another entry.
Query: Quick one: IC50 of CCc1c2c(nc3ccc(O)cc13)-c1cc3c(c(=O)n1C2)COC(=O)[C@]3(O)CC [SN-38] ?
Result: 168
